// data source = patent US11357779B2

method_summary: Plasma concentration versus time of Compound I and metabolite Compound III in patients dosed QD or BID with Form B of Compound II plus fulvestrant
Type: in vivo, human
stated_conditions: human, plasma, oral, 650 mg, Cohort 5, 650 mg QD of Form B, Day 22; read-out: Trough Compound I Concentration, Mean
value_kind: concentration at 22 day (ng/mL)
Could you give me the number in ng/mL? Just the number is fine.

concentration at 22 day recorded for this compound, "CC(C)N1CCN(c2ccc(Nc3ncc4cc5n(c4n3)C3(CCCCC3)CNC5=O)nc2)CC1" , is 30.3

###

method_summary: Plasma concentration versus time of Compound I and metabolite Compound III in patients dosed QD or BID with Form B of Compound II plus fulvestrant
Type: in vivo, human
stated_conditions: human, plasma, oral, 100 mg, 100 mg BID of Form B, Day 1, 2.0 h, Median; read-out: Compound I Concentration
From the text: Patients were enrolled into 1 of 2 parallel, independently operating, dose-escalation dosing cohorts with Form B of Compound II administered continuously either once daily (QD) or twice daily (BID) with food with fixed-dose fulvestrant (intramuscularly every 14 days for the first three injections and then every 28 days). Pre- or perimenopausal patients also received goserelin for the duration of study treatment. […]
value_kind: concentration at 2 h (ng/mL)
Could you give me the number in ng/mL? Just the number is fine.

concentration at 2 h recorded for this molecule, CC(C)N1CCN(c2ccc(Nc3ncc4cc5n(c4n3)C3(CCCCC3)CNC5=O)nc2)CC1 [Compound I] , is 5.71

###

method_summary: Plasma concentration versus time of Compound I and metabolite Compound III in patients dosed QD or BID with Form B of Compound II plus fulvestrant
Assay type: in vivo, human
stated_conditions: human, plasma, oral, 150 mg, 150 mg BID of Form B, Day 1, 1.0 h, Median; read-out: Compound III Concentration
value_kind: concentration at 1 h (ng/mL)
Could you give me the number in ng/mL? Just the number is fine.

concentration at 1 h recorded for this compound, "O=C1NCC2(CCCCC2)n2c1cc1cnc(Nc3ccc(N4CCNCC4)cn3)nc12" , is 1.52

###

method_summary: Pharmacokinetics of Compound I in healthy volunteers after a single dose of Form B of Compound II
Assay type: in vivo, human
stated_conditions: human, blood, oral, single 300 mg dose of Form B of Compound II
value_kind: Tmax
Please append the unit to your numeric answer.

Tmax recorded for this compound, CC(C)N1CCN(c2ccc(Nc3ncc4cc5n(c4n3)C3(CCCCC3)CNC5=O)nc2)CC1 [Compound I] , is 3.5 h

###

method_summary: Plasma concentration versus time of Compound I and metabolite Compound III in patients dosed QD or BID with Form B of Compound II plus fulvestrant
Format: in vivo, human
stated_conditions: human, plasma, oral, 200 mg, 200 mg QD of Form B, Day 29, 10.0 h, Mean; read-out: Compound I Concentration
value_kind: concentration at 10 h (ng/mL)
Could you give me the number in ng/mL? Just the number is fine.

concentration at 10 h recorded for this compound, "CC(C)N1CCN(c2ccc(Nc3ncc4cc5n(c4n3)C3(CCCCC3)CNC5=O)nc2)CC1" , is 11.1

###

method_summary: Plasma concentration versus time of Compound I and metabolite Compound III in patients dosed QD or BID with Form B of Compound II plus fulvestrant
Format: in vivo, human
stated_conditions: human, plasma, oral, 650 mg, Cohort 5, 650 mg QD of Form B, Day 22; read-out: Trough Compound III Concentration, Median
value_kind: concentration at 22 day

concentration at 22 day recorded for this compound, "O=C1NCC2(CCCCC2)n2c1cc1cnc(Nc3ccc(N4CCNCC4)cn3)nc12" , is 3.11 ng/mL
